// provenance: patent US7504406B2

Test system: K-562 line
assay_procedure: MTS cell proliferation and viability test, K-562 line
Assay type: cell-based
run_conditions: Homo sapiens, K562, K-562 leukaemia line, 72 hours of incubation, read-out: IC50 (50% loss of cell proliferation and cell viability)
property_measured: IC50 (nM)

(1) CC(C)(C)NC(=O)Nc1nc2nc(Nc3ccc4nsnc4c3)ncc2cc1-c1c(Cl)cccc1Cl [Compound No. 1]
(2) CCN(CC)Cc1cc2cc(Nc3ncc4cc(-c5c(Cl)cccc5Cl)c(NC(=O)NC(C)(C)C)nc4n3)ccc2o1 [Compound No. 5]
(3) CC(C)(C)NC(=O)Nc1nc2nc(Nc3ccc4ncnn4c3)ncc2cc1-c1c(Cl)cccc1Cl [Compound No. 9]
(4) CCNC(=O)Nc1nc2nc(Nc3ccc4nsnc4c3)ncc2cc1-c1c(Cl)cccc1Cl [Compound No. 13]
Q. In this exercise, place the 4 compounds in ascending sequence of their recorded IC50. Please, when replying, give the labels in the order that was requested.
A. 2, 3, 1, 4
